# Ki per record follows
# ASSAY TARGET: UniProt:Q9NPC1
# Sequence (Q9NPC1 whole entry): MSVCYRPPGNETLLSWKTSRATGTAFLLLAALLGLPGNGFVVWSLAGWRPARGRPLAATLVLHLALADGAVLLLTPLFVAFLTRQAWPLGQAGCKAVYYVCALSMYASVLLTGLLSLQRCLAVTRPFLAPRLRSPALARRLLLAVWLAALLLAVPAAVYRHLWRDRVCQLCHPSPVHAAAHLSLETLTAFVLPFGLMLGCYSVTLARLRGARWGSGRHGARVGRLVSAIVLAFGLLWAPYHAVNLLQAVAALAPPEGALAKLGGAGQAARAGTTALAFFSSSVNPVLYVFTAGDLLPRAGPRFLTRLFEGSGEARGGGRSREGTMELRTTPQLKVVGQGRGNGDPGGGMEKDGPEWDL

Observe how each entry below is paired with its result.
CCCCC/C=C\C\C=C/C=C/C=C/[C@@H](SC[C@H](N)C(=O)O)[C@@H](O)CCCC(=O)O | 6000 nM
CCCCC/C=C\C[C@@H](O)/C=C/C=C/C=C\[C@@H](O)CCCC(=O)NCCCN [LTB4-3-aminopropylamide] | 1230 nM
CCCCCC=CCC=CCC=CCC#CCCCC(=O)O | 1000 nM

With those in mind, consider the next molecule.
In plain terms, `CCCCC/C=C\C\C=C/C=C/C=C/[C@@H](SC[C@H](N)C(=O)NCC(=O)O)[C@@H](O)CCCC(=O)O` has a documented Ki of > 10000 nM

----------
Target chain: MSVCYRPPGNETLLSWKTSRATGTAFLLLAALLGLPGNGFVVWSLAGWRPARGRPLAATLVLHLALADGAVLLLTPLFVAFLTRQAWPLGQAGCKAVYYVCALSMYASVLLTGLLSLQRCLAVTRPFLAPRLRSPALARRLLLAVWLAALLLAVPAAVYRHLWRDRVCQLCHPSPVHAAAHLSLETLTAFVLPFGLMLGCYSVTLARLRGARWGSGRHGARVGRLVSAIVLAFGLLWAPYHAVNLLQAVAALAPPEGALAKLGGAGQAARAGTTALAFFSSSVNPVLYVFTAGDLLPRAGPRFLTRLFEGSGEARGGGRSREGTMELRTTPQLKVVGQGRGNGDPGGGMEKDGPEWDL
# pKi per record follows
Reminder that pKi means the negative base-10 logarithm of the concentration expressed in mol/L.

CC/C=C/C=C/CCC=CC=CC=CC(SCC(NC(=O)CCC(N)C(=O)O)C(=O)NCC(=O)O)C(O)CCCC(=O)O (stereo not drawn) [LTC5] | 5.52

With those in mind, consider the next molecule.
In plain terms, `CCCCC[C@@H](O)/C=C/C=C\C/C=C\C/C=C\CCCC(=O)O` has a documented pKi of 6.76

----------
Leukotriene B4 receptor 1 (Homo sapiens, UniProt Q15722): reported log10(Ki) for various molecules.
Sequence (Q15722 whole entry): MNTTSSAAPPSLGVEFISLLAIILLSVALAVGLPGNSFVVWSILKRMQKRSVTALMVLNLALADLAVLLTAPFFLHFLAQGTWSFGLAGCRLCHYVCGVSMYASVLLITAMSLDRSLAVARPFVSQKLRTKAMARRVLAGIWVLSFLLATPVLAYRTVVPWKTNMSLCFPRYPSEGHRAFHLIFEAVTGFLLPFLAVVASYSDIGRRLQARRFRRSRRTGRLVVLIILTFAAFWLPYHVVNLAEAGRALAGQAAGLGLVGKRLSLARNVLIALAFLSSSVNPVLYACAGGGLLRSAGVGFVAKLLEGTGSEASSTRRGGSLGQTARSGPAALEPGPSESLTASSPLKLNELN
The common logarithm of Ki in nM is what is listed.

Observe how each entry below is paired with its result.
O=C(O)CCC[C@H](O)\C=C/C=C/C=C/[C@H](O)C/C=C\CCCCCO [LTB4-20-hydroxy] | -0.27
CCCCCC(O)C=CC=CC=CC=CC(O)C(O)CCCC(=O)O (stereo unspecified) | 3.16
CCCCC/C=C\C\C=C/C=C/C=C/[C@@H](SC[C@H](N)C(=O)NCC(=O)O)[C@@H](O)CCCC(=O)O | 3.60
CCCCC/C=C\C\C=C/C=C/C=C/[C@@H](SC[C@H](N)C(=O)O)[C@@H](O)CCCC(=O)O | 3.37
CCCCCCCCC=CC=CC=CC1OC1CCCC(=O)OC (stereo unspecified) | 3.70

With those in mind, consider the next molecule.
Assay Leukotriene B4 receptor 1 (Homo sapiens, UniProt Q15722), sample CCCCC/C=C\C[C@@H](O)/C=C/C=C/C=C\[C@@H](O)CCCC(=O)NCCCN [LTB4-3-aminopropylamide] , log10(Ki) read: 0.71

----------
# ASSAY TARGET: Leukotriene B4 receptor 2 (Homo sapiens)
MEASUREMENT LABEL: Ki (µM)
Answer with a number only, understood to be in µM.

Observe how each entry below is paired with its result.
CCC=CCC=CCC(O)C=CC=CC=CC(O)CCCC(=O)O (stereo not given) [NSC_5283125] | 0.0094
CCCCCCCCC=CC=CC=CC(SCC(N)C(=O)NCC(=O)O)C(O)CCCC(=O)O (stereo not given) [LTD3] | 1

Assay Leukotriene B4 receptor 2 (Homo sapiens), sample O=C(O)CCC[C@H](O)\C=C/C=C/C=C/[C@H](O)C/C=C\CCCCCO [LTB4-20-hydroxy] , Ki read: 0.041

----------
# ASSAY TARGET: Leukotriene B4 receptor 1 (Homo sapiens, UniProt Q15722)
# Ki per record follows

CCCCCCCCC=CC=CC=CC(SCC(NC(=O)CCC(N)C(=O)O)C(=O)NCC(=O)O)C(O)CCCC(=O)O (stereo not given) | > 14 µM
O=C(O)CCCC=CCC=CCC=CCC=CCCCCCO | > 10 µM
CCCCCCCCC=CC=CC=CC(SCC(N)C(=O)NCC(=O)O)C(O)CCCC(=O)O (stereo not given) | > 10 µM
CC/C=C/CC=CCC=CC=CC=CC(SCC(N)C(=O)NCC(=O)O)C(O)CCCC(=O)O (stereo not given) | > 10 µM

With those in mind, consider the next compound.
In plain terms, CCCCCC=CCC=CC=CC=CC(SCC(NC(=O)CCC(N)C(=O)O)C(=O)NCC(=O)O)C(O)CCCC(=O)O (stereo not given) has a documented Ki of > 1.9 µM

Provenance of the data: BindingDB's records for doi:10.1074/jbc.M004512200
